Biological target: T1, mfPRLR.mmh (soluble monomeric macaca fascicularis PRLR) (macaca fascicularis)
T1 construct: soluble monomeric PRLR protein; also called macaca fascicularis (mf) PRLR.mmh; monkey PRLR
T1 chain: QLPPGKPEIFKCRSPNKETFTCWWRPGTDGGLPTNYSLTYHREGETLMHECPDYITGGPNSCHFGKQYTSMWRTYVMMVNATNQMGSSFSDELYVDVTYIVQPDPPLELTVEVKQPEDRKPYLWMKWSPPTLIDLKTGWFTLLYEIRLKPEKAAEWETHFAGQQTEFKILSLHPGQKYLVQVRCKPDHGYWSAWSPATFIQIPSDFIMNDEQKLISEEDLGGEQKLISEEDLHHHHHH
Assay: SPR (Biacore), antibody capture, 37 C
EXPERIMENTAL ENDPOINT: T 1/2 (min)
Respond with the bare value in min.

Please look up its T 1/2: H1H6795P (antibody, human IgG1, V domains shown, human IgG1 Fc (H1H)) VH: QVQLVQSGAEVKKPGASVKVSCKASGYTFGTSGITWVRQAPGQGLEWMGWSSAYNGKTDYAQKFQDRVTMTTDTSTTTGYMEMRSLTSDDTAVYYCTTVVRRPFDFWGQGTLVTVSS VL: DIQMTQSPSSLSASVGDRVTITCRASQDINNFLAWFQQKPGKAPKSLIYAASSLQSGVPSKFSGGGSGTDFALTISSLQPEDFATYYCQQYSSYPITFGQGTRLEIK
2

Same for H1H6976N (antibody, human IgG1, V domains shown, also called H2M6976N) VH: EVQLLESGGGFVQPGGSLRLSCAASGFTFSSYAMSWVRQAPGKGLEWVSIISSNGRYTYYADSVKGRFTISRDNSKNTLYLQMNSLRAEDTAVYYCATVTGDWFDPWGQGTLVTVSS VL: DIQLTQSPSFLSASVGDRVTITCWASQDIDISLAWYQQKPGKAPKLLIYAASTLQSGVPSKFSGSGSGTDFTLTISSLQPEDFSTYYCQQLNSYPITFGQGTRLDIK
3.7

# iterate: H1H6958N2 (antibody, human IgG1, V domains shown, also called H2M6958N2) VH: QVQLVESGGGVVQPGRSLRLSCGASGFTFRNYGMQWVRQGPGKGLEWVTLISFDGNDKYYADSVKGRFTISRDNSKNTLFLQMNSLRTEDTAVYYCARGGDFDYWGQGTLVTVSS VL: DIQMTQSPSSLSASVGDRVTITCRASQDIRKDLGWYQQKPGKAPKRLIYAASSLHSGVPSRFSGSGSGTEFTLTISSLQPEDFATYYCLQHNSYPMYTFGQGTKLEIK
8.6
